measurement conditions: mouse, in vivo, iv, 10 mg/kg

{"columns": ["substance", "MRT inf / min"],
 "data": [
  ["Ac-PSRLEEELRRRLTE-NH2 [SD14316]", 4.1]
]}

---

test method notes: Plasma stability, human plasma
measurement conditions: human plasma, 37° C., timepoint 6 h
Bridge positions count the residues as written; N and C are the ends. Peptide text beside a SMILES is read from it.

{"columns": ["compound", "Tube 2 (compound concentration)"],
 "data": [
  ["CC(=O)N1CCC[C@H]1C(=O)N[C@@H](CO)C(=O)N[C@@H](CCCNC(=N)N)C(=O)N[C@@H](CC(C)C)C(=O)N[C@@H](CCC(=O)O)C(=O)N[C@H]1CCCCNC(=O)CC[C@@H](C(=O)N[C@@H](CCCNC(=N)N)C(=O)N[C@@H](CC(C)C)C(=O)N[C@H](C(=O)N[C@@H](CCC(=O)O)C(N)=O)[C@@H](C)O)NC(=O)[C@H](CCCNC(=N)N)NC(=O)[C@H](CC(C)C)NC(=O)[C@H](CCC(=O)O)NC1=O [SD15805] (Ac-PSRLEKELRERLTE-NH2; lactam 6-10)", 2.045]
]}

---

measurement conditions: mouse, in vivo, iv, 3 mg/kg, Vz
measurement type: Vd

{"columns": ["substance", "result value"],
 "data": [
  ["Ac-PSRLEEELRRRLTE-NH2 [SD14316]", "~6.3 L/kg"]
]}

---

measurement conditions: mouse, in vivo, iv, 3 mg/kg

{"columns": ["substance", "measurement unit", "clearance"],
 "data": [
  ["Ac-PSRLEEELRRRLTE-NH2 [SD14316]", "mL/min/kg", 962]
]}

---

test method notes: Plasma stability, mouse plasma
measurement conditions: mouse plasma, 37° C., timepoint 24 h
Bridge positions count the residues as written; N and C are the ends. Peptide text beside a SMILES is read from it.

{"columns": ["compound", "Tube 3 (compound concentration)"],
 "data": [
  ["CC(=O)N[C@@H](CO)C(=O)N[C@@H](CCCNC(=N)N)C(=O)N[C@@H](CC(C)C)C(=O)N[C@@H](CCC(=O)O)C(=O)N[C@H]1CC(=O)NCCCC[C@@H](C(=O)N[C@@H](CCCNC(=N)N)C(=O)N[C@@H](CC(C)C)C(=O)N[C@H](C(=O)N[C@@H](CCC(=O)O)C(N)=O)[C@@H](C)O)NC(=O)[C@H](CCCNC(=N)N)NC(=O)[C@H](CC(C)C)NC(=O)[C@H](CCC(=O)O)NC1=O [SD15196] (Ac-SRLEDELRKRLTE-NH2; lactam 5-9)", 1.201]
]}

---

# maps each entry to its kd
measured target: NbALFA
test method notes: SPR measurements of NbALFA binding (Biacore T200, multi cycle kinetics, 1:1 binding model)
measurement conditions: 25° C., HBS-EP+ buffer, biotinylated NbALFA captured
Method: Affinity measurements were performed using a Biacore T200 (GE Healthcare, Biacore T200 control Software 3.2). […] A freshly docked Biotin CAPture chip was rehydrated overnight in the instrument (standby mode). […] The immobilization of the Nanobody was done for 180 s at 10 μL/min on FC2 followed by quenching of unbound streptavidin by 0.1 mM biocytin for 60 s and 30 μL/min on both flow cells. […] After each cycle, the surface was regenerated for 120 s with 10 μL/min using regeneration solution. […]
Bridge positions count the residues as written; N and C are the ends. Peptide text beside a SMILES is read from it.
measurement type: kd (s⁻¹)

{"columns": ["compound", "result value"],
 "data": [
  ["CC(=O)N1CCC[C@H]1C(=O)N[C@@H](CO)C(=O)N[C@@H](CCCNC(=N)N)C(=O)N[C@@H](CC(C)C)C(=O)N[C@@H](CCC(=O)O)C(=O)N[C@H]1CCCCNC(=O)CC[C@@H](C(=O)N[C@@H](CCCNC(=N)N)C(=O)N[C@@H](CC(C)C)C(=O)N[C@H](C(=O)N[C@@H](CCC(=O)O)C(N)=O)[C@@H](C)O)NC(=O)[C@H](CCCNC(=N)N)NC(=O)[C@H](CC(C)C)NC(=O)[C@H](CCC(=O)O)NC1=O [SD15805] (Ac-PSRLEKELRERLTE-NH2; lactam 6-10)", 0.000964],
  ["CC(=O)N[C@@H](CO)C(=O)N[C@@H](CCCNC(=N)N)C(=O)N[C@@H](CC(C)C)C(=O)N[C@@H](CCC(=O)O)C(=O)N[C@H]1CCC(=O)NCCCC[C@@H](C(=O)N[C@@H](CCCNC(=N)N)C(=O)N[C@@H](CCCNC(=N)N)C(=O)N[C@@H](CC(C)C)C(=O)N[C@H](C(=O)N[C@@H](CCC(=O)O)C(N)=O)[C@@H](C)O)NC(=O)[C@H](CC(C)C)NC(=O)[C@H](CCC(=O)O)NC1=O [SD15192] (Ac-SRLEEELKRRLTE-NH2; lactam 5-8)", 0.000577]
]}

---

# maps each entry to its half-life
test method notes: Plasma stability, mouse plasma
measurement conditions: mouse, plasma, Half-life time, mouse plasma, 37° C., incubation 24 h (triplicates) or 6 h (duplicates)
Bridge positions count the residues as written; N and C are the ends. Square brackets hold non-standard residues; d marks the D form. Peptide text beside a SMILES is read from it.

{"columns": ["compound", "measurement unit", "half-life"],
 "data": [
  ["CC(=O)N1CCC[C@H]1C(=O)N[C@@H](CO)C(=O)N[C@@H](CCCNC(=N)N)C(=O)N[C@@H](CC(C)C)C(=O)N[C@@H](CCC(=O)O)C(=O)N[C@H]1CSSC[C@H](C(=O)N[C@@H](CCCNC(=N)N)C(=O)N[C@@H](CCCNC(=N)N)C(=O)N[C@@H](CC(C)C)C(=O)N[C@H](C(=O)N[C@@H](CCC(=O)O)C(N)=O)[C@@H](C)O)NC(=O)[C@H](CC(C)C)NC(=O)[C@H](CCC(=O)O)NC1=O [SD15807] (Ac-PSRLECEL[dC]RRLTE-NH2; disulfide 6-9)", "h", 4.32],
  ["CC(=O)N[C@@H](CO)C(=O)N[C@@H](CCCNC(=N)N)C(=O)N[C@@H](CC(C)C)C(=O)N[C@@H](CCC(=O)O)C(=O)N[C@H]1CCC(=O)NCCCC[C@@H](C(=O)N[C@@H](CCCNC(=N)N)C(=O)N[C@@H](CCCNC(=N)N)C(=O)N[C@@H](CC(C)C)C(=O)N[C@H](C(=O)N[C@@H](CCC(=O)O)C(N)=O)[C@@H](C)O)NC(=O)[C@H](CC(C)C)NC(=O)[C@H](CCC(=O)O)NC1=O [SD15192] (Ac-SRLEEELKRRLTE-NH2; lactam 5-8)", "h", 11.8]
]}

---

# maps each entry to its Tube 1 (compound concentration)
test method notes: Plasma stability, human plasma
measurement conditions: human plasma, 37° C., timepoint 24 h
Bridge positions count the residues as written; N and C are the ends. Peptide text beside a SMILES is read from it.

{"columns": ["molecule", "Tube 1 (compound concentration)"],
 "data": [
  ["CC(=O)N[C@@H](CO)C(=O)N[C@@H](CCCNC(=N)N)C(=O)N[C@@H](CC(C)C)C(=O)N[C@@H](CCC(=O)O)C(=O)N[C@@H](CCC(=O)O)C(=O)N[C@@H](CCC(=O)O)C(=O)N[C@@H](CC(C)C)C(=O)N[C@@H](CCCNC(=N)N)C(=O)N[C@H]1CCCCNC(=O)CC[C@@H](C(N)=O)NC(=O)[C@H]([C@@H](C)O)NC(=O)[C@H](CC(C)C)NC(=O)[C@H](CCCNC(=N)N)NC1=O [SD15193] (Ac-SRLEEELRKRLTE-NH2; lactam 9-13)", 2.387],
  ["CC(=O)N[C@@H](CO)C(=O)N[C@@H](CCCNC(=N)N)C(=O)N[C@@H](CC(C)C)C(=O)N[C@@H](CCC(=O)O)C(=O)N[C@H]1CCC(=O)NCCCC[C@@H](C(=O)N[C@@H](CCCNC(=N)N)C(=O)N[C@@H](CCCNC(=N)N)C(=O)N[C@@H](CC(C)C)C(=O)N[C@H](C(=O)N[C@@H](CCC(=O)O)C(N)=O)[C@@H](C)O)NC(=O)[C@H](CC(C)C)NC(=O)[C@H](CCC(=O)O)NC1=O [SD15192] (Ac-SRLEEELKRRLTE-NH2; lactam 5-8)", 0.031],
  ["CC(=O)N[C@@H](CO)C(=O)N[C@@H](CCCNC(=N)N)C(=O)N[C@@H](CC(C)C)C(=O)N[C@@H](CCC(=O)O)C(=O)N[C@H]1CC(=O)NCCCC[C@@H](C(=O)N[C@@H](CCCNC(=N)N)C(=O)N[C@@H](CC(C)C)C(=O)N[C@H](C(=O)N[C@@H](CCC(=O)O)C(N)=O)[C@@H](C)O)NC(=O)[C@H](CCCNC(=N)N)NC(=O)[C@H](CC(C)C)NC(=O)[C@H](CCC(=O)O)NC1=O [SD15196] (Ac-SRLEDELRKRLTE-NH2; lactam 5-9)", 0.844],
  ["CC(=O)N[C@@H](CO)C(=O)N[C@@H](CCCNC(=N)N)C(=O)N[C@@H](CC(C)C)C(=O)N[C@@H](CCC(=O)O)C(=O)N[C@H]1CCC(=O)NCCCC[C@@H](C(=O)N[C@@H](CCCNC(=N)N)C(=O)N[C@@H](CC(C)C)C(=O)N[C@H](C(=O)N[C@@H](CCC(=O)O)C(N)=O)[C@@H](C)O)NC(=O)[C@H](CCCNC(=N)N)NC(=O)[C@H](CC(C)C)NC(=O)[C@H](CCC(=O)O)NC1=O [SD15194] (Ac-SRLEEELRKRLTE-NH2; lactam 5-9)", 1.322]
]}
